target-of-assay: Glycogen synthase kinase-3 beta (Homo sapiens)
protocol-details: NVS_ENZ_hGSK3b: NovaScreen (NVS) Enzymatic Assay for human Glycogen Synthase Kinase-3 beta (GSK3b) (AID 2283165)
Records with an inconclusive call do not appear. Calls of active or inactive are those of the source. The calls were made as follows: active = hit-call score of the fitted dose curve at least 0.9, where 1 is the maximum; inconclusive = response in the unintended direction; inactive = score below 0.9.

{"columns": ["compound", "outcome"],
 "data": [
  ["O=C(O)c1cccc(C[C@@H]2COc3ccc(OCc4nc5cc(F)ccc5s4)cc3[C@@H]2O)c1", "inactive"],
  ["CCCC(CCC)C(=O)O", "inactive"],
  ["OC[C@H]1O[C@@H]2O[C@H]3[C@H](O)[C@@H](O)[C@@H](O[C@H]4[C@H](O)[C@@H](O)[C@@H](O[C@H]5[C@H](O)[C@@H](O)[C@@H](O[C@H]6[C@H](O)[C@@H](O)[C@@H](O[C@H]7[C@H](O)[C@@H](O)[C@@H](O[C@H]1[C@H](O)[C@H]2O)O[C@@H]7CO)O[C@@H]6CO)O[C@@H]5CO)O[C@@H]4CO)O[C@@H]3CO", "inactive"],
  ["O=C(NO)C1(NS(=O)(=O)c2ccc(Oc3ccc(F)cc3)cc2)CCOCC1", "inactive"],
  ["CCCCCCCC1CCC(=O)O1 (stereo unspecified)", "inactive"],
  ["C[C@]12C=CC(=O)C=C1CC[C@H]1[C@@H]3C[C@@H](O)[C@](O)(C(=O)CO)[C@@]3(C)C[C@H](O)[C@@]12F", "inactive"]
]}

* * *

Read-out: Cytochrome P450 2C19 (Homo sapiens)
protocol-details: LTEA_HepaRG_CYP2C19: Life Technologies and Expression Analysis (LTEA) Assay for CYP2C19 using HepaRG (AID 2283482)
test-conditions: mRNA level, 48 h; actives raise or lower the signal
Active and inactive are the calls of the source. The calls were made as follows: active = hit-call score of the fitted dose curve at least 0.9, where 1 is the maximum; inactive = score below 0.9.
Classes used: active, inactive

{"columns": ["mol-smiles", "answer-label"],
 "data": [
  ["OCCNCCO", "active"],
  ["CCCOc1ccc(S(=O)(=O)N2CCN(CC)CC2)cc1-c1nc2c(CC)n(Cc3ccccn3)nc2c(=O)[nH]1", "active"],
  ["CCCCN1C(=O)[C@@H]([C@H](O)C2CCCCC2)NC(=O)C12CCN(Cc1ccc(Oc3ccc(C(=O)O)cc3)cc1)CC2", "active"],
  ["OC[C@H]1O[C@@H]2O[C@H]3[C@H](O)[C@@H](O)[C@@H](O[C@H]4[C@H](O)[C@@H](O)[C@@H](O[C@H]5[C@H](O)[C@@H](O)[C@@H](O[C@H]6[C@H](O)[C@@H](O)[C@@H](O[C@H]7[C@H](O)[C@@H](O)[C@@H](O[C@H]1[C@H](O)[C@H]2O)O[C@@H]7CO)O[C@@H]6CO)O[C@@H]5CO)O[C@@H]4CO)O[C@@H]3CO", "inactive"],
  ["O=C(O)c1cccc(C[C@@H]2COc3ccc(OCc4nc5cc(F)ccc5s4)cc3[C@@H]2O)c1", "active"]
]}

* * *

Read-out: Glutathione S-Transferase (GSTA2), GSTA2 (gene 2939)
protocol-details: LTEA_HepaRG_GSTA2: Life Technologies and Expression Analysis (LTEA) Assay for Glutathione S-Transferase (GSTA2) using HepaRG (AID 2283497)
test-conditions: mRNA level, 48 h; actives raise or lower the signal
Active and inactive are the calls of the source. How the source made its calls: active means hit-call score of the fitted dose curve at least 0.9, where 1 is the maximum; inactive means score below 0.9.
Classes used: active, inactive

{"columns": ["compound", "answer-label"],
 "data": [
  ["O=S(=O)(O)c1ccc(N=Nc2c(O)ccc3cc(S(=O)(=O)O)ccc23)cc1", "inactive"],
  ["O=C1CN(N=Cc2ccc([N+](=O)[O-])o2)C(=O)N1", "active"],
  ["COc1cc2c(c(OC)c1OC)-c1ccc(OC)c(=O)cc1[C@@H](NC(C)=O)CC2", "active"],
  ["CCCCCCCC/C=C\\CCCCCCCC(=O)OC[C@@H](O)[C@H]1OC[C@H](O)[C@H]1O", "inactive"],
  ["Cc1nc(-c2ccccn2)ncc1C(=O)Nn1cc(C)c2cc(F)ccc21", "active"],
  ["CC(C)C(=O)Nc1ccc([N+](=O)[O-])c(C(F)(F)F)c1", "active"],
  ["CCc1cccc(CC)c1N", "inactive"],
  ["CCCCC(CC)C(=O)OCCOCCOCCOC(=O)C(CC)CCCC (stereo not drawn)", "inactive"]
]}

Each recorded value in this set is attributed to PubChem BioAssay (EPA / NIEHS).
